- Test system: MS2 coat protein
- assay_protocol: apparent KD of MS2 coat protein; designed switch direction (-1 OFF switch, 1 ON switch): 1; higher = weaker reporter binding
- measurement_parameters: input ligand: microRNA oligo, concentration not stated
Class definitions on apparent KD of MS2 coat protein: low-valued (below 40 nM), mid-valued (40 nM to below 100 nM), high-valued (100 nM or more)

Exercise: Category lookup for the sequence GCUACCAAUGAAGCCAACAUGAGGAUCACCCAUGUAUGUUGGUAGGAUAUCGUUUGCAAAGCAAACGAGAAGGGCUAAGGUAGC [Mat - Same State NG 3 - JL Mod - D75] (Eterna round: R96, puzzle: Same State NG 3)
Solution: low-valued

Exercise: Category lookup for the sequence GAGCUCGUGUGAGGAUAUGCCGCCGUUUCGGCUGCAGAAGGUGCUACGUUACAUGAGGAUCACCCAUGUCUCUGUUGUUUCGUC [salish99_SSNG1_r04_961] (Eterna round: R96, puzzle: Same State NG 1)
Solution: low-valued

Exercise: Category lookup for the sequence AGCUUUUAAUCAGGAUAUGGUCACAUGAGGAUCACCCAUGUAACGAUGAUAUAAUGUGGUCAAGACUAGAAGGGAUUGCUAACA [SameState NG2 #67] (Eterna round: R96, puzzle: Same State NG 2)
Solution: high-valued

Exercise: Category lookup for the sequence ACAUGAGGAUCACCCAUGUAGGCUCAGGAAACUGUGCCACAUGAGGAUAUGGAUCCUAAUUGGAUCCAGAAGGCAUGUAUUAUU [Fiskers NG3ss - 22] (Eterna round: R96, puzzle: Same State NG 3)
Solution: mid-valued

Exercise: Category lookup for the sequence UUGUGUUUGCGAGGAUAUCGUUUGUUGAAGUUACGAGAAGGCGCUCUCUUUACAUGAGGAUCACCCAUGUCUUUGAUGCAUGAU [JR_SSNG1_Sub072] (Eterna round: R96, puzzle: Same State NG 1)
Solution: mid-valued

Exercise: Category lookup for the sequence CGCCAACGCAUAGGAUAUGCUUGUGUGGAUCGGGCAGAAGGGUGGUUGGAAACAUGAGGAUCACCCAUGUAAAAGUAAGAAAAU [Rierinqu] (Eterna round: R96, puzzle: Same State NG 1)
Solution: high-valued

Exercise: Category lookup for the sequence UAUCCAUAGAUAGGAUAUCAGUAUACAUGAGGAUCACCCAUGUUCUAUUUGGUUUUAAUUUAUUCUGAGAAGGAUCUUGAUGAA [SameState NG2 #1] (Eterna round: R96, puzzle: Same State NG 2)
Solution: low-valued

Exercise: Category lookup for the sequence CCGGUAUAUGGAGGAUAUGGAGCCUUAUUGGCUCCAGAAGGCUAAUAACAUGAGGAUCACCCAUGUCCGGCGGUCAAUAGACCG [Eli NG1ss - 59] (Eterna round: R96, puzzle: Same State NG 1)
Solution: high-valued

Exercise: Category lookup for the sequence AAAGAAAAACUAGAGGAUAUCCGAGUGGUAACAUGAGGAUCACCCAUGUGAUGAAAGGAACAUGAGGAGAAGGCUAGAAGAAAAA [JL Nando mod 8] (Eterna round: R96, puzzle: Same State 2)
Solution: mid-valued
